System: MALME-3M melanoma
Experiment: NCI-60 one-dose screen, 48 h (100 = growth as untreated, 0 = no growth, -100 = all killed)
Conditions: 10 µM unless noted
The panel holds about 83,000 compounds, 20% with a hit somewhere; the sample as a whole holds those more often.
Binary call on growth: YES from 80% upward, NO beneath that.

Worked cases, answers included:
{"Compound": "Cc1cccc(C)c1-c1cc(Cc2ccc(Cl)cc2)c(=O)[nH]n1", "Label value": "YES"}
{"Compound": "NC(=S)N/N=C(\\c1ccc(Cl)cc1)C1CC1", "Label value": "YES"}
{"Compound": "N/C(=N\\N=C\\c1cc2ccccc2s1)N/N=C/c1cc2ccccc2s1", "Label value": "YES"}
{"Compound": "CCCNC(=O)Oc1ccc(/C(=C(\\C)c2ccccc2)c2ccc(OCCN3CCCCC3)cc2)cc1", "Label value": "NO"}
{"Compound": "COc1ccc(C(=O)c2cc3c(N)c(C(=O)Nc4cccc(Br)c4C)sc3nc2C)cc1", "Label value": "NO"}

### Prompt Could you verify whether the entry CC[C@@]12C=CCN3CC[C@]4(c5cc(NC(=O)COc6cc(OCC(=O)Nc7cc8c(cc7OC)N(C)[C@H]7[C@@](O)(C(=O)OC)[C@H](OC(C)=O)[C@]9(CC)C=CCN%10CC[C@]87[C@@H]%109)cc7oc(-c8ccccc8)cc(=O)c67)c(OC)cc5N(C)[C@@H]4[C@](O)(C(=O)OC)[C@H]1OC(C)=O)[C@H]32 shows growth of no less than 80%?
### Response YES

### Prompt Could you verify whether the entry COc1cc2nc(-c3ccc(C(F)(F)F)cc3)cc(OCCN3CCCC3)c2cc1OC shows growth of no less than 80%?
### Response YES

### Prompt Could you verify whether the entry N#CC1=C(N)Oc2c(ccc3ccccc23)C1c1ccc([N+](=O)[O-])cc1 (stereo not drawn) shows growth of no less than 80%?
### Response YES

Data provenance is PubChem BioAssay (NCI).
